assay: Plasma dabigatran concentration and pharmacokinetics by HPLC-MS/MS; format: in vivo, human; conditions: human, plasma, oral; healthy subjects, single dose 150 mg, 2 h, HPLC-MS/MS, mean ± SD; read-out: C–2 h
measured-parameter: concentration at 2 h (ng/mL)

1. [H]/N=C(/N)c1ccc(NCc2nc3cc(C(=O)N(CCC(=O)O)c4ccccn4)ccc3n2C)cc1 | 85.5

====

test: Hemoclot thrombin inhibitor (HTI) assay of plasma dabigatran concentration; format: in vivo, human; details: human, plasma, oral; healthy subjects, single dose 150 mg, 12 h, HTI-derived concentration
measured-parameter: concentration at 12 h (ng/mL)

1. [H]/N=C(/N)c1ccc(NCc2nc3cc(C(=O)N(CCC(=O)O)c4ccccn4)ccc3n2C)cc1 | 40

====

Assay: Plasma dabigatran concentration and pharmacokinetics by HPLC-MS/MS
Type: in vivo, human
Conditions: human, plasma, oral; healthy subjects, single dose 150 mg, 0 h (pre-dose), HPLC-MS/MS, mean ± SD; read-out: C–0 h
Procedure: The venous blood samples were collected 0 h and post-dose at 16–19 time points in 3.0 ml EDTA-K2 tubes and centrifuged at 4°C for 10 min at 3,000 g. The plasma samples were stored at –80°C until analysis. The total anti-thrombin effect from dabigatran etexilate is a result of dabigatran (alone) and dabigatran acylglucuronides. […] Thus, dabigatran concentrations were determined by validated HPLC-MS/MS assays at Shimadzu 30 series, API 6500 (Applied Biosystems, Inc., American). […]
measured-parameter: concentration at 0 h (ng/mL)

1. [H]/N=C(/N)c1ccc(NCc2nc3cc(C(=O)N(CCC(=O)O)c4ccccn4)ccc3n2C)cc1 | 0

====

experiment: Plasma dabigatran concentration and pharmacokinetics by HPLC-MS/MS; assay type: in vivo, human; conditions: human, plasma, oral; healthy subjects, single dose 150 mg, 12 h, HPLC-MS/MS, mean ± SD; read-out: C–12 h
measured-parameter: concentration at 12 h (ng/mL)

1. [H]/N=C(/N)c1ccc(NCc2nc3cc(C(=O)N(CCC(=O)O)c4ccccn4)ccc3n2C)cc1 | 36.4

====

experiment: Hemoclot thrombin inhibitor (HTI) assay of plasma dabigatran concentration; format: in vivo, human; conditions: human, plasma, oral; healthy subjects, single dose 150 mg, 0 h (pre-dose), HTI-derived concentration
measured-parameter: concentration at 0 h (ng/mL)

1. [H]/N=C(/N)c1ccc(NCc2nc3cc(C(=O)N(CCC(=O)O)c4ccccn4)ccc3n2C)cc1 | 2.99

====

experiment: Plasma dabigatran concentration and pharmacokinetics by HPLC-MS/MS; type: in vivo, human; conditions: human, plasma, oral; healthy subjects, single dose 150 mg, 8 h, HPLC-MS/MS, mean ± SD; read-out: C–8 h
measured-parameter: concentration at 8 h (ng/mL)

1. [H]/N=C(/N)c1ccc(NCc2nc3cc(C(=O)N(CCC(=O)O)c4ccccn4)ccc3n2C)cc1 [Dabigatran] | 57.6

====

test: Hemoclot thrombin inhibitor (HTI) assay of plasma dabigatran concentration; assay type: in vivo, human; details: human, plasma, oral; healthy subjects, single dose 150 mg, 2 h, HTI-derived concentration
measured-parameter: concentration at 2 h (ng/mL)

1. [H]/N=C(/N)c1ccc(NCc2nc3cc(C(=O)N(CCC(=O)O)c4ccccn4)ccc3n2C)cc1 | 88.9

====

assay: Plasma dabigatran concentration and pharmacokinetics by HPLC-MS/MS; format: in vivo, human; details: human, plasma, oral, 150 mg, healthy subjects, single dose 150 mg, mean ± SD; read-out: AUC0–12
measured-parameter: AUC(0-t) (ng·h/mL)

1) [H]/N=C(/N)c1ccc(NCc2nc3cc(C(=O)N(CCC(=O)O)c4ccccn4)ccc3n2C)cc1 | 1290
